# EXPERIMENTAL SYSTEM: Lp-PLA2 (rabbit serum as the source of enzyme) (Oryctolagus cuniculus, UniProt G1SE06)
# Construct: Rabbit Serum as the Source of Enzyme; from tissue; host or cells: rabbit serum
# Sequence (G1SE06 22-423): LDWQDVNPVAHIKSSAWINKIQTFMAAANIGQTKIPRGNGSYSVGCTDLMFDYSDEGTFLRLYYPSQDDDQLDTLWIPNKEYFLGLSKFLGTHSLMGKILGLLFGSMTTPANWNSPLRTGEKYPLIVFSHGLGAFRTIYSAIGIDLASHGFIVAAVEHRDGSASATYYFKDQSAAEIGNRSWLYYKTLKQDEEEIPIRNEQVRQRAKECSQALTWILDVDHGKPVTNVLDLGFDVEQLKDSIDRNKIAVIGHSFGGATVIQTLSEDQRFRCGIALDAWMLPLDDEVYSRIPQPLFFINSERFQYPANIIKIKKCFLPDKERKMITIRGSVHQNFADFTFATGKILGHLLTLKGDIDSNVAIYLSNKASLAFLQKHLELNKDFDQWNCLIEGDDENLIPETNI
# RUN DESCRIPTION: In vitro inhibitory activity on Lp-PLA2, rabbit serum as the source of enzyme (2-thio-PAF/DTNB)
# Type: biochemical
# CONDITION SET: 100 nM compound; read-out: Inhibitory ratio, % on Lp-PLA2 (rabbit serum as the source of enzyme)
PROPERTY MEASURED: inhibition at 0.1 µM (%)
Write it as a number; the unit % goes unstated.

Sample Cn1c(N2CCOCC2)cc(OCc2cc(F)c(Oc3ccnc(C(F)(F)F)c3)c(F)c2)nc1=O ; inhibition at 0.1 µM observed: 83.5

Sample COc1ccc(-c2cc(OCc3cc(F)c(Oc4ccc(Cl)c(C(F)(F)F)c4)c(F)c3)nc(=O)n2C)cc1 ; inhibition at 0.1 µM observed: 54.2

Sample Cn1c(N2CCOCC2)cc(OCCc2cc(F)c(Oc3ccc(Cl)c(C(F)(F)F)c3)c(F)c2)nc1=O ; inhibition at 0.1 µM observed: 93.8

Sample Cn1c(N2CCC(F)(F)C2)cc(OCc2cc(F)c(Oc3ccc(Cl)c(C(F)(F)F)c3)c(F)c2)nc1=O ; inhibition at 0.1 µM observed: 77.4

* * *

# EXPERIMENTAL SYSTEM: Lp-PLA2 (rabbit serum as the source of enzyme) (Oryctolagus cuniculus, UniProt G1SE06)
# Construct: Rabbit Serum as the Source of Enzyme; from tissue; host or cells: rabbit serum
# RUN DESCRIPTION: In vitro inhibitory activity on Lp-PLA2, rabbit serum as the source of enzyme (2-thio-PAF/DTNB)
# Assay type: biochemical
# CONDITION SET: 100 nM compound; read-out: Inhibitory ratio, % on Lp-PLA2 (rabbit serum as the source of enzyme)
PROPERTY MEASURED: inhibition at 0.1 µM (%)
Write it as a number; the unit % goes unstated.

Sample Cn1c(-c2ccccc2)cc(OCc2cc(F)c(Oc3ccc(Cl)c(C(F)(F)F)c3)c(F)c2)nc1=O ; inhibition at 0.1 µM observed: 59.7

Sample Cn1c(N2CCOCC2)cc(OCc2cc(F)c(Oc3ccc(C(F)(F)F)nc3)c(F)c2)nc1=O ; inhibition at 0.1 µM observed: 57.3

Sample Cn1cc(-c2cc(OCc3cc(F)c(Oc4ccc(Cl)c(C(F)(F)F)c4)c(F)c3)nc(=O)n2C)cn1 ; inhibition at 0.1 µM observed: 65.4

Sample CCn1c(N2CCOCC2)cc(OCc2cc(F)c(Oc3ccc(Cl)c(C(F)(F)F)c3)c(F)c2)nc1=O ; inhibition at 0.1 µM observed: 54.1

* * *

I'd be grateful if you could share measured inhibition at 0.01 µM for these entries.
# EXPERIMENTAL SYSTEM: Lp-PLA2 (rabbit serum as the source of enzyme) (Oryctolagus cuniculus, UniProt G1SE06)
# Construct: Rabbit Serum as the Source of Enzyme; from tissue; host or cells: rabbit serum
# RUN DESCRIPTION: In vitro inhibitory activity on Lp-PLA2, rabbit serum as the source of enzyme (2-thio-PAF/DTNB)
# Format: biochemical
# CONDITION SET: 10 nM compound; — = no inhibitory activity; read-out: Inhibitory ratio, % on Lp-PLA2 (rabbit serum as the source of enzyme)
Write it as a number; the unit % goes unstated.

Sample Cn1c(N2CCC(F)(F)C2)cc(OCc2cc(F)c(Oc3ccc(Cl)c(C(F)(F)F)c3)c(F)c2)nc1=O ; inhibition at 0.01 µM observed: 13.2

Sample Cn1c(N2CCOCC2)cc(OCCc2cc(F)c(Oc3ccc(Cl)c(C(F)(F)F)c3)c(F)c2)nc1=O ; inhibition at 0.01 µM observed: 49.2

Sample Cn1c(N2CCOCC2)cc(OCc2cc(F)c(Oc3ccnc(C(F)(F)F)c3)c(F)c2)nc1=O ; inhibition at 0.01 µM observed: 22.6

Sample Cn1cc(-c2cc(OCc3cc(F)c(Oc4ccc(Cl)c(C(F)(F)F)c4)c(F)c3)nc(=O)n2C)cn1 ; inhibition at 0.01 µM observed: 33.2

* * *

# System: Lp-PLA2 (rat serum as the source of enzyme)
# RUN DESCRIPTION: In vitro inhibitory activity on Lp-PLA2, rat serum as the source of enzyme (2-thio-PAF/DTNB)
# Type: biochemical
# CONDITION SET: 100 nM compound
I'd be grateful if you could share measured inhibitory ratio, % on Lp-PLA2 (rat serum as the source of enzyme) for these entries.
Write it as a number; the unit % goes unstated.

Sample COc1ccc(-c2cc(OCc3cc(F)c(Oc4ccc(Cl)c(C(F)(F)F)c4)c(F)c3)nc(=O)n2C)cc1 [Example 20] ; inhibitory ratio, % on Lp-PLA2 (rat serum as the source of enzyme) observed: 43.27

Sample Cn1c(N2CCOCC2)cc(OCCc2cc(F)c(Oc3ccc(Cl)c(C(F)(F)F)c3)c(F)c2)nc1=O [Example 5] ; inhibitory ratio, % on Lp-PLA2 (rat serum as the source of enzyme) observed: 73.23

Sample Cn1c(N2CCC(F)(F)C2)cc(OCc2cc(F)c(Oc3ccc(Cl)c(C(F)(F)F)c3)c(F)c2)nc1=O [Example 16] ; inhibitory ratio, % on Lp-PLA2 (rat serum as the source of enzyme) observed: 50.35

Sample Cn1c(-c2ccccc2)cc(OCc2cc(F)c(Oc3ccc(Cl)c(C(F)(F)F)c3)c(F)c2)nc1=O [Example 19] ; inhibitory ratio, % on Lp-PLA2 (rat serum as the source of enzyme) observed: 18.06

Sample Cn1cc(-c2cc(OCc3cc(F)c(Oc4ccc(Cl)c(C(F)(F)F)c4)c(F)c3)nc(=O)n2C)cn1 [Example 21] ; inhibitory ratio, % on Lp-PLA2 (rat serum as the source of enzyme) observed: 82.48

* * *

# EXPERIMENTAL SYSTEM: Lp-PLA2 (human recombinant enzyme as the source of enzyme) (Homo sapiens, UniProt Q13093)
# Sequence (Q13093 22-441): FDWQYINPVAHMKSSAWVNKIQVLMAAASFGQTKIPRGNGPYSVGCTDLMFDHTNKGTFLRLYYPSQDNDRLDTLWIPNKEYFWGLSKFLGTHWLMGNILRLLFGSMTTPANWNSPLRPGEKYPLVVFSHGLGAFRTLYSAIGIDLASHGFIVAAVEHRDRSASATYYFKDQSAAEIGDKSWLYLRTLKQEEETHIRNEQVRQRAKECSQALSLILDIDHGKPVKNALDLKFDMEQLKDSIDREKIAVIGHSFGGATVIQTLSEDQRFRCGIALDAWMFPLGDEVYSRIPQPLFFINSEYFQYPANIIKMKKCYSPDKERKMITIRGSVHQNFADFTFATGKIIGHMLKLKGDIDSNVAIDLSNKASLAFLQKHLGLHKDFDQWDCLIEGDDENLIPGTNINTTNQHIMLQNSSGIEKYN
# RUN DESCRIPTION: In vitro inhibitory activity on Lp-PLA2, human recombinant enzyme (2-thio-PAF/DTNB)
# Type: biochemical
# CONDITION SET: 100 nM compound; read-out: inhibitory ratio, % on Lp-PLA2 (human recombinant enzyme as the source of enzyme)
PROPERTY MEASURED: inhibition at 0.1 µM (%)
Write it as a number; the unit % goes unstated.

Sample COc1ccc(-c2cc(OCc3cc(F)c(Oc4ccc(Cl)c(C(F)(F)F)c4)c(F)c3)nc(=O)n2C)cc1 [Example 20] ; inhibition at 0.1 µM observed: 90.4

Sample CCn1c(N2CCOCC2)cc(OCc2cc(F)c(Oc3ccc(Cl)c(C(F)(F)F)c3)c(F)c2)nc1=O [Example 34] ; inhibition at 0.1 µM observed: 95.6

Sample Cn1c(N2CCOCC2)cc(OCCc2cc(F)c(Oc3ccc(Cl)c(C(F)(F)F)c3)c(F)c2)nc1=O [Example 5] ; inhibition at 0.1 µM observed: 100

Sample Cn1cc(-c2cc(OCc3cc(F)c(Oc4ccc(Cl)c(C(F)(F)F)c4)c(F)c3)nc(=O)n2C)cn1 [Example 21] ; inhibition at 0.1 µM observed: 90.1

Sample Cn1c(N2CCC(F)(F)C2)cc(OCc2cc(F)c(Oc3ccc(Cl)c(C(F)(F)F)c3)c(F)c2)nc1=O [Example 16] ; inhibition at 0.1 µM observed: 92.4

Sample Cn1c(-c2ccccc2)cc(OCc2cc(F)c(Oc3ccc(Cl)c(C(F)(F)F)c3)c(F)c2)nc1=O [Example 19] ; inhibition at 0.1 µM observed: 89.7

* * *

I'd be grateful if you could share measured inhibitory ratio, % on Lp-PLA2 (rat serum as the source of enzyme) for these entries.
# Test system: Lp-PLA2 (rat serum as the source of enzyme)
# RUN DESCRIPTION: In vitro inhibitory activity on Lp-PLA2, rat serum as the source of enzyme (2-thio-PAF/DTNB)
# Assay type: biochemical
# CONDITION SET: 10 nM compound; — = no inhibitory activity
Write it as a number; the unit % goes unstated.

Sample Cn1cc(-c2cc(OCc3cc(F)c(Oc4ccc(Cl)c(C(F)(F)F)c4)c(F)c3)nc(=O)n2C)cn1 [Example 21] ; inhibitory ratio, % on Lp-PLA2 (rat serum as the source of enzyme) observed: 27.65

Sample Cn1c(N2CCOCC2)cc(OCCc2cc(F)c(Oc3ccc(Cl)c(C(F)(F)F)c3)c(F)c2)nc1=O [Example 5] ; inhibitory ratio, % on Lp-PLA2 (rat serum as the source of enzyme) observed: 18.21

Sample Cn1c(N2CCC(F)(F)C2)cc(OCc2cc(F)c(Oc3ccc(Cl)c(C(F)(F)F)c3)c(F)c2)nc1=O [Example 16] ; inhibitory ratio, % on Lp-PLA2 (rat serum as the source of enzyme) observed: 6.84

* * *

I'd be grateful if you could share measured inhibition at 1 µM for these entries.
# EXPERIMENTAL SYSTEM: Lp-PLA2 (rabbit serum as the source of enzyme) (Oryctolagus cuniculus)
# Construct: Rabbit Serum as the Source of Enzyme; from tissue; host or cells: rabbit serum
# RUN DESCRIPTION: In vitro inhibitory activity on Lp-PLA2, rabbit serum as the source of enzyme (2-thio-PAF/DTNB)
# Format: biochemical
# CONDITION SET: 1 μM compound; read-out: Inhibitory ratio, % on Lp-PLA2 (rabbit serum as the source of enzyme)
Include the unit after the number when you answer.

Sample Cn1c(N2CCOCC2)cc(OCc2cc(F)c(Oc3ccc(C(F)(F)F)nc3)c(F)c2)nc1=O [Example 26] ; inhibition at 1 µM observed: 93.5%

Sample Cn1c(N2CCOCC2)cc(OCc2cc(F)c(Oc3ccnc(C(F)(F)F)c3)c(F)c2)nc1=O [Example 29] ; inhibition at 1 µM observed: 97.1%

Sample Cn1c(N2CCOCC2)cc(OCCc2cc(F)c(Oc3ccc(Cl)c(C(F)(F)F)c3)c(F)c2)nc1=O [Example 5] ; inhibition at 1 µM observed: 97.3%

Sample CCn1c(N2CCOCC2)cc(OCc2cc(F)c(Oc3ccc(Cl)c(C(F)(F)F)c3)c(F)c2)nc1=O [Example 34] ; inhibition at 1 µM observed: 95.6%

Sample Cn1c(N2CCC(F)(F)C2)cc(OCc2cc(F)c(Oc3ccc(Cl)c(C(F)(F)F)c3)c(F)c2)nc1=O [Example 16] ; inhibition at 1 µM observed: 96.4%
